molecular target: T1, human CD47 protein, His Tag (ACRObiosystems, Cat. No. CD7-H5227) (human, UniProt Q08722 19-139); assay: Biacore SPR, antibody captured on CM5 chip, CD47-His protein, 25 C
T1 construct: Bought protein; also called hCD47-His Tag protein; not shown: His tag
T1 sequence (Q08722 19-139 limits assumed): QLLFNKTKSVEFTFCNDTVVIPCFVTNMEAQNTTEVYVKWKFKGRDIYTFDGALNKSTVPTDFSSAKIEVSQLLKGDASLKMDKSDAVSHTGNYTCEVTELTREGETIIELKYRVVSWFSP
Items are presented alongside their recorded Kd.
Write the answer as a number in pM, unit excluded.

Query: Reported Kd for hz3F10-1.1 (antibody, human IgG4 S228P, kappa, V domains shown, Humanized 3F10, full-length heavy and light chains, made in CHO cells) VH: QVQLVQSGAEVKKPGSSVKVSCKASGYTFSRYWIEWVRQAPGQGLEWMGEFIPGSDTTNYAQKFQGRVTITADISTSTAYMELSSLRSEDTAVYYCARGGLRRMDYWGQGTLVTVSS VL: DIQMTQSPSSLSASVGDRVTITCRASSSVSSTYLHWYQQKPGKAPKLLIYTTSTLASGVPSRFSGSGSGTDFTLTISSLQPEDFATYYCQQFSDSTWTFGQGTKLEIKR : what is it?
Response: 946

Query: Reported Kd for hz3F10-6.2 (antibody, human IgG4 S228P, kappa, V domains shown, Humanized 3F10, full-length heavy and light chains, made in CHO cells) VH: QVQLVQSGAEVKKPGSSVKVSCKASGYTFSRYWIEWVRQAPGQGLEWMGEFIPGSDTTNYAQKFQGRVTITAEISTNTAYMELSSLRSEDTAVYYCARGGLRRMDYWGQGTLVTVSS VL: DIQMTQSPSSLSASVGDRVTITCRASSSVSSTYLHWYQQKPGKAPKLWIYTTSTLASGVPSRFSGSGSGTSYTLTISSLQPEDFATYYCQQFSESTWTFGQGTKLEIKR : what is it?
Response: 765

Query: Reported Kd for hz3F10-6.1 (antibody, human IgG4 S228P, kappa, V domains shown, Humanized 3F10, full-length heavy and light chains, made in CHO cells) VH: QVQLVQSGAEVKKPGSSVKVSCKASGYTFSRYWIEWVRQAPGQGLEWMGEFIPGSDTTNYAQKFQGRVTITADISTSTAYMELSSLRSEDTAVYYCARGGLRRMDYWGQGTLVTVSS VL: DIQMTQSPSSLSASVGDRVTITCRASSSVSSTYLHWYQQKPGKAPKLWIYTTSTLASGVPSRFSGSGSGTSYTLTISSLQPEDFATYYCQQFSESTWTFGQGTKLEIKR : what is it?
Response: 592

Query: Reported Kd for hz3F10-4.1 (antibody, human IgG4 S228P, kappa, V domains shown, Humanized 3F10, full-length heavy and light chains, made in CHO cells) VH: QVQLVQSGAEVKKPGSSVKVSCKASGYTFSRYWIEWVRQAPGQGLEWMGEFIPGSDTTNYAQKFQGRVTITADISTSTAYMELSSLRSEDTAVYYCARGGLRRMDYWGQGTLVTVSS VL: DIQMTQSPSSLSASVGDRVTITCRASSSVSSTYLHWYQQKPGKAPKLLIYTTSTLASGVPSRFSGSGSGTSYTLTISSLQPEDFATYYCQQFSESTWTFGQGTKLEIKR : what is it?
Response: 1420

Query: Reported Kd for hz14A9-2.3 (antibody, human IgG4 S228P, kappa, V domains shown) VH: QVQLVQSGAEVKKPGASVKVSCKVSGFNIEDDYIEWVRQAPGQGLEWMGRIDPANDKTKYAQKFQGRVTMTGDTSTNTVYMELSSLRSEDTAVYYCARPGLRRYYSMDYWGQGTLVTVSS VL: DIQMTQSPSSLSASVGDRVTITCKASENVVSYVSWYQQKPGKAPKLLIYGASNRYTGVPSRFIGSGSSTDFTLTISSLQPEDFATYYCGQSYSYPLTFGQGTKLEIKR : what is it?
Response: 204
